Reference for the values: ChEMBL document CHEMBL3885861

Answer each item with its documented PL.
Species on record: Rattus norvegicus
Assay: Open TG-GATES - Regimen: Single
Format: toxicity, organism-based, Sprague-Dawley
Set-up: regimen Single, gender Male, age 6 weeks
Details: in vivo, po, 100 mg/kg, 6 h, tissue Plasma, route gavage, dose level Low
Numeric only. Scale: mg/dL

Please fill in: PL reported for CCOC(=O)CCC(=O)O[C@H]1[C@H](O[C@@H]2[C@@H](C)[C@H](O[C@H]3C[C@@](C)(OC)[C@@H](O)[C@H](C)O3)[C@@H](C)C(=O)O[C@H](CC)[C@@](C)(O)[C@H](O)[C@@H](C)C(=O)[C@H](C)C[C@@]2(C)O)O[C@H](C)C[C@@H]1N(C)C [ERYTHROMYCIN ETHYLSUCCINATE] = 132.2

The molecule listed as COc1ccc2[nH]c([S+]([O-])Cc3ncc(C)c(OC)c3C)nc2c1 (centres undefined) has a reported PL of 159.6

The reported PL of the molecule COC1=CC(=O)C[C@@H](C)[C@]12Oc1c(Cl)c(OC)cc(OC)c1C2=O was 148.4

Please fill in: PL reported for NC(N)=Nc1nc(CSCCC(N)=NS(N)(=O)=O)cs1 = 141.2

---

Please respond with reported IP for every item in the list.
Species on record: Rattus norvegicus
Test: Open TG-GATES - Regimen: Single
Format: toxicity, organism-based, Sprague-Dawley
Parameters: regimen Single, gender Male, age 6 weeks
Settings: in vivo, po, 300 mg/kg, 6 h, tissue Plasma, route gavage, dose level Middle
State the answer as a number, implicitly in mg/dL.

Notebook: NC(N)=Nc1nc(CSCCC(N)=NS(N)(=O)=O)cs1 [FAMOTIDINE] , IP read as 9

Briefly, IP measured for COc1ccc2[nH]c([S+]([O-])Cc3ncc(C)c(OC)c3C)nc2c1 (centres undefined) [OMEPRAZOLE] : 9.7

The molecule identified as CCOC(=O)CCC(=O)O[C@H]1[C@H](O[C@@H]2[C@@H](C)[C@H](O[C@H]3C[C@@](C)(OC)[C@@H](O)[C@H](C)O3)[C@@H](C)C(=O)O[C@H](CC)[C@@](C)(O)[C@H](O)[C@@H](C)C(=O)[C@H](C)C[C@@]2(C)O)O[C@H](C)C[C@@H]1N(C)C [ERYTHROMYCIN ETHYLSUCCINATE] registered its IP at 10.1

Lookup result for COC1=CC(=O)C[C@@H](C)[C@]12Oc1c(Cl)c(OC)cc(OC)c1C2=O [GRISEOFULVIN] ; measured IP: 9.7

---

Organism: Rattus norvegicus
Test: Open TG-GATES - Regimen: Daily Repeat
Assay type: toxicity, organism-based, Sprague-Dawley
Set-up: regimen Daily Repeat, gender Male, age 6 weeks
Details: in vivo, po, 1000 mg/kg, […], tissue Blood, route gavage, dose level High, time 7 day
Can you tell me MCH for the items I'm about to list?

Lab note: COc1ccc2[nH]c([S+]([O-])Cc3ncc(C)c(OC)c3C)nc2c1 (stereo not given) gave MCH of 20.3 pg

Note to self: MCH recorded for NC(N)=Nc1nc(CSCCC(N)=NS(N)(=O)=O)cs1 was 21.5 pg

Entry CCOc1ccc(NC(=O)CC(C)O)cc1 (stereo not given) — recorded MCH = 21 pg

Recorded result, CCOC(=O)CCC(=O)O[C@H]1[C@H](O[C@@H]2[C@@H](C)[C@H](O[C@H]3C[C@@](C)(OC)[C@@H](O)[C@H](C)O3)[C@@H](C)C(=O)O[C@H](CC)[C@@](C)(O)[C@H](O)[C@@H](C)C(=O)[C@H](C)C[C@@]2(C)O)O[C@H](C)C[C@@H]1N(C)C [ERYTHROMYCIN ETHYLSUCCINATE] , MCH: 20.5 pg

Per the records, this molecule ( COC1=CC(=O)C[C@@H](C)[C@]12Oc1c(Cl)c(OC)cc(OC)c1C2=O ) has MCH equal to 21.5 pg
